target: T1, CD3 epsilon homodimer protein (UniProt P07766 23-126); test: SPR, antibody over immobilised CD3e homodimer;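 also: SPR at 25 °C with CD3 epsilon homodimer amine-coupled to a CM4 sensor chip and antibody flowed over as analyte in HBS-EP+ running buffer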
T1 construct: also called CD3 (CD3 epsilon)
T1 sequence (P07766 23-126): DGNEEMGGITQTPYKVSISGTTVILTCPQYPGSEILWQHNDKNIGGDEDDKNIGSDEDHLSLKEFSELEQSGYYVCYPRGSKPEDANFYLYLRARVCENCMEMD
Strictly below 1 in KD ratio to GLS3000: 1. Otherwise: -1.

BINDER: CE115HA000/GLS3000 K50L (antibody, IgG1, name in Kabat numbering, V domains shown, one-arm IgG1) VH: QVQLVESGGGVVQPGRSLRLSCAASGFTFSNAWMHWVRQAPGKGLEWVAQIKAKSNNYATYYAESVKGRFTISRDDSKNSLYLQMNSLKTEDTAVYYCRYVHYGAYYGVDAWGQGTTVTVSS VL: DIVMTQSPLSLPVTPGEPASISCRSSQSLVHSNRNTYLHWYQQKPGQAPRLLIYLVSNRFSGVPDRFSGSGSGTDFTLKISRVEAEDVGVYYCGQGTQVPYTFGQGTKLEIK
CATEGORY LABEL: -1
//
BINDER: CE115HA000/GLS3000 S27aD (antibody, IgG1, name in Kabat numbering, V domains shown, one-arm IgG1) VH: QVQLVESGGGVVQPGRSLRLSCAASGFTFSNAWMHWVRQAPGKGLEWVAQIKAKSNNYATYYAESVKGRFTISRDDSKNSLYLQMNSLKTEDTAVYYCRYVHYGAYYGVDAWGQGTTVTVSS VL: DIVMTQSPLSLPVTPGEPASISCRSSQDLVHSNRNTYLHWYQQKPGQAPRLLIYKVSNRFSGVPDRFSGSGSGTDFTLKISRVEAEDVGVYYCGQGTQVPYTFGQGTKLEIK
CATEGORY LABEL: 1
//
BINDER: CE115HA000/GLS3000 V94A (antibody, IgG1, name in Kabat numbering, V domains shown, one-arm IgG1) VH: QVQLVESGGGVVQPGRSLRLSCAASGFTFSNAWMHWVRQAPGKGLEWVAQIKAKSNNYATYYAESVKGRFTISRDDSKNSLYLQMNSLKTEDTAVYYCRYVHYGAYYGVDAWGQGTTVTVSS VL: DIVMTQSPLSLPVTPGEPASISCRSSQSLVHSNRNTYLHWYQQKPGQAPRLLIYKVSNRFSGVPDRFSGSGSGTDFTLKISRVEAEDVGVYYCGQGTQAPYTFGQGTKLEIK
CATEGORY LABEL: -1
//
BINDER: CE115HA000/GLS3000 S27eQ (antibody, IgG1, name in Kabat numbering, V domains shown, one-arm IgG1) VH: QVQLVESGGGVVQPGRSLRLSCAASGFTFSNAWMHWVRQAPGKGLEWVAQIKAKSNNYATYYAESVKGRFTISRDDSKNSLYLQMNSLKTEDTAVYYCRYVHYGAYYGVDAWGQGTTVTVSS VL: DIVMTQSPLSLPVTPGEPASISCRSSQSLVHQNRNTYLHWYQQKPGQAPRLLIYKVSNRFSGVPDRFSGSGSGTDFTLKISRVEAEDVGVYYCGQGTQVPYTFGQGTKLEIK
CATEGORY LABEL: -1
//
BINDER: CE115HA000/GLS3000 S26D (antibody, IgG1, name in Kabat numbering, V domains shown, one-arm IgG1) VH: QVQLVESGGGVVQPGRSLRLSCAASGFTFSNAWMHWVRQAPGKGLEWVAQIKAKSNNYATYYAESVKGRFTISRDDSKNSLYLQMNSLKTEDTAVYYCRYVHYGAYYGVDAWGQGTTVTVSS VL: DIVMTQSPLSLPVTPGEPASISCRSDQSLVHSNRNTYLHWYQQKPGQAPRLLIYKVSNRFSGVPDRFSGSGSGTDFTLKISRVEAEDVGVYYCGQGTQVPYTFGQGTKLEIK
CATEGORY LABEL: -1
